B1: OR4K15 (parent)
chain: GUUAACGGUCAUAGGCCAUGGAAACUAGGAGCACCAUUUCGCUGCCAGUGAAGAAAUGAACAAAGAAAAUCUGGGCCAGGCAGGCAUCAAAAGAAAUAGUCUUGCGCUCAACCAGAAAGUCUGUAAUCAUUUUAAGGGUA

- Variants of: B1
- assayMethodText: self-cleavage, relative activity (ratio to wild type); higher = more cleavage; in vitro, sequencing; the parent is a self-cleaving ribozyme
Outcome: y for self-cleavage of at least 1; n for anything lower.

// inclusive: self-cleavage at least 1? input: A11G A140G n

Values were extracted from the RNAGym collection of RNA variant scans (doi:10.7554/elife.90254).
